protocol-details: in vivo
assay-conditions: rat, iv, 1 mg/kg, C0
readout-label: C0 (ng/mL)
Give a bare numeral; the unit ng/mL is implied.

Exercise: Report measured C0; entry is CCCCC(=O)N(Cc1ccc(-c2ccccc2-c2nnn[nH]2)cc1)[C@H](C(=O)O)C(C)C [Valsartan, valsartan]
Solution: 1170

* * *

assay-system: OCT1 (Homo sapiens)
Sequence (O15245 whole entry): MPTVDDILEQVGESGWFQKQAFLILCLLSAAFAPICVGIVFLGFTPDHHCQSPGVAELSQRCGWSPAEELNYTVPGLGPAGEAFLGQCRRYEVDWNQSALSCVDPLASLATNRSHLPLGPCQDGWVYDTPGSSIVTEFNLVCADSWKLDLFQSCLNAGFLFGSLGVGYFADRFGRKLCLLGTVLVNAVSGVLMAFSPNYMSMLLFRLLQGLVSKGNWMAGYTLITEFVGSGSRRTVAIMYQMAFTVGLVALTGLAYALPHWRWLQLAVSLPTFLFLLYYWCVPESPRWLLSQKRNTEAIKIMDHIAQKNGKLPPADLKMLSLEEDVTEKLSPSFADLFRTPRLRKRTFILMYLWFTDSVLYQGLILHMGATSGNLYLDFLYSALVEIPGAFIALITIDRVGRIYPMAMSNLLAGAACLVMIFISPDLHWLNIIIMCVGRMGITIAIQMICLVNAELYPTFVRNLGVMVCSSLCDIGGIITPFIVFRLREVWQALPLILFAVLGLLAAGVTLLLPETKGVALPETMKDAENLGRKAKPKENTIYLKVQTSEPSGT
protocol-details: Inhibition of OCT1-mediated [3H]MPP+ uptake in HEK293-OCT1 cells
pIC50: −log10 of the molar value.
readout-label: pIC50

Exercise: Give recorded pIC50. CC(C)=CCC[C@](C)(O[C@@H]1O[C@H](CO[C@@H]2O[C@H](CO)[C@@H](O)[C@H](O)[C@H]2O)[C@@H](O)[C@H](O)[C@H]1O)[C@H]1CC[C@]2(C)[C@@H]1[C@H](O)C[C@@H]1[C@@]3(C)CC[C@H](O[C@@H]4O[C@H](CO)[C@@H](O)[C@H](O)[C@H]4O[C@@H]4O[C@H](CO)[C@@H](O)[C@H](O)[C@H]4O)C(C)(C)[C@@H]3CC[C@]12C [Rb1, ginsenoside Rb1]
Solution: < 4.00

Exercise: Indicate the recorded pIC50 value for this compound: CC(C)=CCC[C@](C)(O[C@@H]1O[C@H](CO[C@@H]2O[C@@H](CO)[C@H](O)[C@H]2O)[C@@H](O)[C@H](O)[C@H]1O)[C@H]1CC[C@]2(C)[C@@H]1[C@H](O)C[C@@H]1[C@@]3(C)CC[C@H](O[C@@H]4O[C@H](CO)[C@@H](O)[C@H](O)[C@H]4O[C@@H]4O[C@H](CO)[C@@H](O)[C@H](O)[C@H]4O)C(C)(C)[C@@H]3CC[C@]12C [Rc, ginsenoside Rc]
Solution: < 4.00

Exercise: Find the measured pIC50 of CC(C)=CCC[C@](C)(O[C@@H]1O[C@H](CO)[C@@H](O)[C@H](O)[C@H]1O)[C@H]1CC[C@]2(C)[C@@H]1[C@H](O)C[C@@H]1[C@@]3(C)CC[C@H](O)C(C)(C)[C@@H]3[C@@H](O[C@@H]3O[C@H](CO)[C@@H](O)[C@H](O)[C@H]3O)C[C@]12C [Rg1, ginsenoside Rg1] and report it.
Solution: < 4.00
